Value source: paper PMC9007951

assay name: Timed organ biodistribution of [^64Cu]Cu-DOTATATE by ex vivo gamma counting
Type: in vivo, mice
test context: mouse, small intestine, intravenous, 1.85 MBq, total radioactivity; female Apoe^-/- mice 12 weeks on Western Diet, 30 min after injection, median (IQR), N=3-8; read-out: Tissue radioactivity, small intestine
metric name: tissue uptake at 0.5 h (%ID/g)
# number only, unit %ID/g dropped from output

Query: What does the data say about its tissue uptake at 0.5 h? Entry: C[C@@H](O)[C@H](NC(=O)[C@@H]1CSSC[C@H](NC(=O)[C@@H](Cc2ccccc2)NC(=O)CN2CCN(CC(=O)O)CCN(CC(=O)O)CCN(CC(=O)O)CC2)C(=O)N[C@@H](Cc2ccc(O)cc2)C(=O)N[C@H](Cc2c[nH]c3ccccc23)C(=O)N[C@@H](CCCCN)C(=O)N[C@@H]([C@@H](C)O)C(=O)N1)C(=O)O [[^64Cu]Cu-DOTATATE, metal not drawn]
Response: 3.1

* * *

assay name: Timed organ biodistribution of [^64Cu]Cu-DOTATATE by ex vivo gamma counting
Type: in vivo, mice
test context: mouse, tail, intravenous, 1.85 MBq, total radioactivity; female Apoe^-/- mice 12 weeks on Western Diet, 30 min after injection, median (IQR), N=3-8; read-out: Tissue radioactivity, tail
metric name: tissue uptake at 0.5 h (%ID/g)
Quick reminder: number only, in %ID/g, skip the unit.

Query: May I ask what tissue uptake at 0.5 h has been recorded for C[C@@H](O)[C@H](NC(=O)[C@@H]1CSSC[C@H](NC(=O)[C@@H](Cc2ccccc2)NC(=O)CN2CCN(CC(=O)O)CCN(CC(=O)O)CCN(CC(=O)O)CC2)C(=O)N[C@@H](Cc2ccc(O)cc2)C(=O)N[C@H](Cc2c[nH]c3ccccc23)C(=O)N[C@@H](CCCCN)C(=O)N[C@@H]([C@@H](C)O)C(=O)N1)C(=O)O [[^64Cu]Cu-DOTATATE, metal not drawn] ?
Response: 3.1

* * *

assay name: Timed organ biodistribution of [^64Cu]Cu-DOTATATE by ex vivo gamma counting
Format: in vivo, mice
test context: mouse, adrenal gland, intravenous, 1.85 MBq, total radioactivity; female Apoe^-/- mice 12 weeks on Western Diet, 1 min after injection, median (IQR), N=3-8; read-out: Tissue radioactivity, adrenal gland
metric name: tissue uptake at 1 min (%ID/g)
Form entry: value (%ID/g) — number only.

Query: Endpoint output: tissue uptake at 1 min of C[C@@H](O)[C@H](NC(=O)[C@@H]1CSSC[C@H](NC(=O)[C@@H](Cc2ccccc2)NC(=O)CN2CCN(CC(=O)O)CCN(CC(=O)O)CCN(CC(=O)O)CC2)C(=O)N[C@@H](Cc2ccc(O)cc2)C(=O)N[C@H](Cc2c[nH]c3ccccc23)C(=O)N[C@@H](CCCCN)C(=O)N[C@@H]([C@@H](C)O)C(=O)N1)C(=O)O [[^64Cu]Cu-DOTATATE, metal not drawn] . Value?
Response: 1.4

* * *

assay name: Organ biodistribution of [^68Ga]Ga-DOTATATE by ex vivo gamma counting
Format: in vivo, New Zealand White rabbits
test context: male, New Zealand White, rabbit, pancreas, intravenous, 190 MBq, total radioactivity, male control rabbits, 200 min after tracer injection, median (IQR), N = 6; read-out: Tissue radioactivity, pancreas
metric name: tissue uptake at 200 min (%ID/g)
Give just the number in %ID/g; leave the unit off.

Query: Give the measured tissue uptake at 200 min of C[C@@H](O)[C@H](NC(=O)[C@@H]1CSSC[C@H](NC(=O)[C@@H](Cc2ccccc2)NC(=O)CN2CCN(CC(=O)O)CCN(CC(=O)O)CCN(CC(=O)O)CC2)C(=O)N[C@@H](Cc2ccc(O)cc2)C(=O)N[C@H](Cc2c[nH]c3ccccc23)C(=O)N[C@@H](CCCCN)C(=O)N[C@@H]([C@@H](C)O)C(=O)N1)C(=O)O [[^68Ga]Ga-DOTATATE, metal not drawn] .
Response: 0.005

* * *

assay name: Timed organ biodistribution of [^64Cu]Cu-DOTATATE by ex vivo gamma counting
Format: in vivo, mice
test context: mouse, abdominal aorta, intravenous, 1.85 MBq, total radioactivity; female Apoe^-/- mice 12 weeks on Western Diet, 5 min after injection, median (IQR), N=3-8; read-out: Tissue radioactivity, abdominal aorta
metric name: tissue uptake at 5 min (%ID/g)
# output: bare number, implied unit %ID/g

Query: Need tissue uptake at 5 min of C[C@@H](O)[C@H](NC(=O)[C@@H]1CSSC[C@H](NC(=O)[C@@H](Cc2ccccc2)NC(=O)CN2CCN(CC(=O)O)CCN(CC(=O)O)CCN(CC(=O)O)CC2)C(=O)N[C@@H](Cc2ccc(O)cc2)C(=O)N[C@H](Cc2c[nH]c3ccccc23)C(=O)N[C@@H](CCCCN)C(=O)N[C@@H]([C@@H](C)O)C(=O)N1)C(=O)O [[^64Cu]Cu-DOTATATE, metal not drawn] , thanks.
Response: 3.2

* * *

assay name: Timed organ biodistribution of [^64Cu]Cu-DOTATATE by ex vivo gamma counting
Format: in vivo, mice
test context: mouse, fat, intravenous, 1.85 MBq, total radioactivity; female C57BL/6 mice, 30 min after injection, median (IQR), N=3-7; read-out: Tissue radioactivity, fat
Description: Wild-type and atherosclerotic animals were injected with approximately 1.85 MBq of [^64Cu]Cu-DOTATATE and euthanized at either 1, 5, 15, 30, 60 or 120 min after injection (Supplementary Fig. S1A) to evaluate the tracer’s biodistribution. […] Values were corrected for decay and normalized to tissue weight to express radioactivity concentration as percentage injected dose per gram (%ID/g). […] Plasma (supernatant) and cells (pellet) were gamma counted and expressed as percentage of total activity. […]
metric name: tissue uptake at 0.5 h (%ID/g)
Give just the numeric value; %ID/g need not be written.

Query: Item under review: C[C@@H](O)[C@H](NC(=O)[C@@H]1CSSC[C@H](NC(=O)[C@@H](Cc2ccccc2)NC(=O)CN2CCN(CC(=O)O)CCN(CC(=O)O)CCN(CC(=O)O)CC2)C(=O)N[C@@H](Cc2ccc(O)cc2)C(=O)N[C@H](Cc2c[nH]c3ccccc23)C(=O)N[C@@H](CCCCN)C(=O)N[C@@H]([C@@H](C)O)C(=O)N1)C(=O)O [[^64Cu]Cu-DOTATATE, metal not drawn] . Reported tissue uptake at 0.5 h?
Response: 0.5

* * *

assay name: Timed organ biodistribution of [^64Cu]Cu-DOTATATE by ex vivo gamma counting
Type: in vivo, mice
test context: mouse, heart, intravenous, 1.85 MBq, total radioactivity; female Apoe^-/- mice 12 weeks on Western Diet, 15 min after injection, median (IQR), N=3-8; read-out: Tissue radioactivity, heart
metric name: tissue uptake at 0.25 h (%ID/g)
Note: unit %ID/g is implicit; provide only the numeric part.

Query: Please look up its tissue uptake at 0.25 h: C[C@@H](O)[C@H](NC(=O)[C@@H]1CSSC[C@H](NC(=O)[C@@H](Cc2ccccc2)NC(=O)CN2CCN(CC(=O)O)CCN(CC(=O)O)CCN(CC(=O)O)CC2)C(=O)N[C@@H](Cc2ccc(O)cc2)C(=O)N[C@H](Cc2c[nH]c3ccccc23)C(=O)N[C@@H](CCCCN)C(=O)N[C@@H]([C@@H](C)O)C(=O)N1)C(=O)O [[^64Cu]Cu-DOTATATE, metal not drawn]
Response: 1.1

* * *

assay name: Timed organ biodistribution of [^64Cu]Cu-DOTATATE by ex vivo gamma counting
Format: in vivo, mice
test context: mouse, large intestine, intravenous, 1.85 MBq, total radioactivity; female Apoe^-/- mice 12 weeks on Western Diet, 1 min after injection, median (IQR), N=3-8; read-out: Tissue radioactivity, large intestine
metric name: tissue uptake at 1 min
Answer with the value and then the unit.

Query: Given the compound C[C@@H](O)[C@H](NC(=O)[C@@H]1CSSC[C@H](NC(=O)[C@@H](Cc2ccccc2)NC(=O)CN2CCN(CC(=O)O)CCN(CC(=O)O)CCN(CC(=O)O)CC2)C(=O)N[C@@H](Cc2ccc(O)cc2)C(=O)N[C@H](Cc2c[nH]c3ccccc23)C(=O)N[C@@H](CCCCN)C(=O)N[C@@H]([C@@H](C)O)C(=O)N1)C(=O)O [[^64Cu]Cu-DOTATATE, metal not drawn] , what is its reported tissue uptake at 1 min?
Response: 1.3 %ID/g

* * *

assay name: Timed organ biodistribution of [^64Cu]Cu-DOTATATE by ex vivo gamma counting
Type: in vivo, mice
test context: mouse, spleen, intravenous, 1.85 MBq, total radioactivity; female C57BL/6 mice, 5 min after injection, median (IQR), N=3-7; read-out: Tissue radioactivity, spleen
metric name: tissue uptake at 5 min (%ID/g)
State just the number; it will be interpreted in %ID/g.

Query: Consider the compound C[C@@H](O)[C@H](NC(=O)[C@@H]1CSSC[C@H](NC(=O)[C@@H](Cc2ccccc2)NC(=O)CN2CCN(CC(=O)O)CCN(CC(=O)O)CCN(CC(=O)O)CC2)C(=O)N[C@@H](Cc2ccc(O)cc2)C(=O)N[C@H](Cc2c[nH]c3ccccc23)C(=O)N[C@@H](CCCCN)C(=O)N[C@@H]([C@@H](C)O)C(=O)N1)C(=O)O [[^64Cu]Cu-DOTATATE, metal not drawn] and give its measured tissue uptake at 5 min.
Response: 1.5
